src = patent US20210380703A1

- assay-target: Mouse ACVR2A (mouse, UniProt P27038 20-135, limits assumed); further: test concentration or dose not given here
- Sequence (P27038 20-135 limits assumed): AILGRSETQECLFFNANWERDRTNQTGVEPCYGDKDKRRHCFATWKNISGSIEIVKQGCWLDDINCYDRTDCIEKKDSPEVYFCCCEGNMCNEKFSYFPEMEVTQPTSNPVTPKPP
- method-notes: ELISA
value-type: optical density (OD)
Lab book: enter the figure in OD, no units written.

Recorded optical density, per entry:
binder	meas-value
368_C05 (antibody, V domains shown) VH: EVQLLESGGGLVQPGGSLRLSCAASGFTFDSYGMNWVRQAPGKGLEWVSGINYNSGYTSYADSVKGRFTISRDNSKNTLYLQMNSLRAEDTAVYYCARSANWHDTALDYWGQGTLVTVSS VL: DIQMTQSPSSLSASVGDRVTITCRASQSILSYLNWYQQKPGKAPKLVIYAATSRASGVPSRFSGSGSGTDFTLTISSLQPEDFATYYCQQSDSNPLTFGGGTKVEIK	2.02
368_E02 (antibody, V domains shown) VH: EVQLLESGGGLVQPGGSLRLSCAASGFTFDSYSMNWVRQAPGKGLEWVAGINYNSGYTSYADSVKGRFTISRDNSKNTLYLQMNSLRAEDTAVYYCARSANWHDTHLDYWGQGTLVTVSS VL: DIQMTQSPSSLSASVGDRVTITCRASQSILTYLNWYQQKPGKAPKLLIYAATSRASGVPSRFSGSGSGTDFTLTISSLQPEDFATYYCQQSYSSPLTFGGGTKVEIK	2.79
369_F03 (antibody, V domains shown) VH: EVQLLESGGGLVQPGGSLRLSCAASGFTFSDYGMNWVRQAPGKGLEWVSGINYNSGYTSYADSVKGRFTISRDNSKNTLYLQMNSLRAEDTAVYYCARSANWHDTALDYWGQGTLVTVSS VL: DIQMTQSPSSLSASVGDRVTITCRASQSIVSYVNWYQQKPGKAPKLLIYAATSLASGVPSRFSGSGSGTDFTLTISSLQPEDFATYYCQQSYDSPLTFGGGTKVEIK	2.75

# optical density of 367_H06 (antibody, V domains shown) VH: EVQLLESGGGLVQPGGSLRLSCAASGFTFSSYGMNWVRQAPGKGLEWVSNINYNGGYTGYADSVKGRFTISRDNSKNTLYLQMNSLRAEDTAVYYCARSANWHDTHLDYWGQGTLVTVSS VL: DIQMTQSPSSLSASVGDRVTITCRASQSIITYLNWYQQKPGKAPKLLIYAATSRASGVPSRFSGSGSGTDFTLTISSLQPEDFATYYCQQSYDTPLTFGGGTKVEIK = 3.08

get_value(item= 368_B07 (antibody, V domains shown) VH: EVQLLESGGGLVQPGGSLRLSCAASGFTFSDYSMNWVRQAPGKGLEWVSNINYNGGYKSYADSVKGRFTISRDNSKNTLYLQMNSLRAEDTAVYYCARSANWHDTALDYWGQGTLVTVSS VL: DIQMTQSPSSLSASVGDRVTITCRASQSIVSYLNWYQQKPGKAPKLLIYAATSLASGVPSRFSGSGSGTDFTLTISSLQPEDFATYYCQQSYSSPLTFGGGTKVEIK , readout=optical density) returns 2.06

Value of optical density reported for the binder 368_G12 (antibody, V domains shown) VH: EVQLLESGGGLVQPGGSLRLSCAASGFTFSSYGMNWVRQAPGKGLEWVASINYNSGYTGYADSVKGRFTISRDNSKNTLYLQMNSLRAEDTAVYYCARSANWHDTALDYWGQGTLVTVSS VL: DIQMTQSPSSLSASVGDRVTITCRASQSISSYVNWYQQKPGKAPKLVIYAVTSRASGVPSRFSGSGSGTDFTLTISSLQPEDFATYYCQQSYETPLTFGGGTKVEIK is 2.54

Documented optical density of 370_C05 (antibody, V domains shown) VH: EVQLLESGGGLVQPGGSLRLSCAASGFTFSSYSMNWVRQAPGKGLEWVAGINYNSGYTGYADSVKGRFTISRDNSKNTLYLQMNSLRAEDTAVYYCARSANWHDTALDYWGQGTLVTVSS VL: DIQMTQSPSSLSASVGDRVTITCRASQSILSYVNWYQQKPGKAPKLVIYAATSRASGVPSRFSGSGSGTDFTLTISSLQPEDFATYYCQQSYNSPLTFGGGTKVEIK : 3.55

The value of optical density measured for the binder 371_F08 (antibody, V domains shown) VH: EVQLLESGGGLVQPGGSLRLSCAASGFTFDDYSMNWVRQAPGKGLEWVSGINYNGGYTGYADSVKGRFTISRDNSKNTLYLQMNSLRAEDTAVYYCARSANWHDTALDYWGQGTLVTVSS VL: DIQMTQSPSSLSASVGDRVTITCRASQSIVSYVNWYQQKPGKAPKLVIYAATSRHSGVPSRFSGSGSGTDFTLTISSLQPEDFATYYCQQSYESPLTFGGGTKVEIK turned out to be 2.55

Summary for this binder, 367_E09 (antibody, V domains shown) VH: EVQLLESGGGLVQPGGSLRLSCAASGFTFSDYGMNWVRQAPGKGLEWVASINYNSGYKGYADSVKGRFTISRDNSKNTLYLQMNSLRAEDTAVYYCARSANWHDTALDYWGQGTLVTVSS VL: DIQMTQSPSSLSASVGDRVTITCRASQSILSYLNWYQQKPGKAPKLVIYATTSRASGVPSRFSGSGSGTDFTLTISSLQPEDFATYYCQQSYETPLTFGGGTKVEIK : optical density is 1.81

optical density reading for 369_F06 (antibody, V domains shown) VH: EVQLLESGGGLVQPGGSLRLSCAASGFTFDDYSMNWVRQAPGKGLEWVAGINYNGGYKGYADSVKGRFTISRDNSKNTLYLQMNSLRAEDTAVYYCARSANWHDTALDYWGQGTLVTVSS VL: DIQMTQSPSSLSASVGDRVTITCRASQSIVSYVNWYQQKPGKAPKLVIYAATSRASGVPSRFSGSGSGTDFTLTISSLQPEDFATYYCQQSYDSPLTFGGGTKVEIK : 3.07
